Where do these numbers come from? They come from patent US20240246918A1.

This listing pairs compounds with measured pIC50.
# Test system: COLO 205 colorectal tumor cells
# Experiment Notes: Tumor cell viability inhibition assay (CellTiter-Glo 2.0, 72 hours)
# Assay type: cell-based
# Condition Info: Homo sapiens, COLO 205, 72 h, COLO 205 cell viability
pIC50: −log10 of the molar value.

Example entries and their recorded answers appear below.
# Compound, Result
records = [
    ("COC1CCN([C@@H]2CCc3nc(C)n(CCOc4ccc(Cl)cc4-c4cc(C)nc5c(C(=O)O)csc45)c(=O)c3[C@@H]2C)CC1 (stereo in doubt) [Compound 103]", "4.70 to 5.30"),
    ("Cc1cc(-c2cc(Cl)ccc2OCCn2c(C)nc3c(c2=O)CC(C)(N2CCC(OC(F)(F)F)CC2)CC3)c2scc(C(=O)O)c2n1 (stereo not drawn) [Compound 536]", "> 5.30"),
]

# assay system COLO 205 colorectal tumor cells: give pIC50 of COC1CCN(C2CCc3nc(C)n(CCOc4ccc(Cl)cc4-c4cc(C)nc5c(C(=O)NC6CC(F)(F)C6)csc45)c(=O)c3C2)CC1 (stereo not drawn) [Compound 144]
4.70 to 5.30

# assay system COLO 205 colorectal tumor cells: give pIC50 of Cc1cc(-c2cc(Cl)ccc2OCCn2c(C)nc3c(c2=O)CC(N(C)C2CCCCC2)CC3)c2scc(C(=O)O)c2n1 (stereo not drawn) [Compound 69]
> 5.30

# assay system COLO 205 colorectal tumor cells: give pIC50 of Cc1cc(-c2cc(Cl)ccc2OCCn2c(C)nc3c(c2=O)CC(N2CCCC(F)(F)C2)CC3)c2scc(C(=O)O)c2n1 (stereo not drawn) [Compound 50]
> 5.30

# assay system COLO 205 colorectal tumor cells: give pIC50 of Cc1cc(-c2cc(Cl)ccc2OCCn2c(C)nc3c(c2=O)C[C@@H](N2CCC(COC(F)(F)F)CC2)CC3)c2scc(C(=O)O)c2n1 (single isomer, unassigned) [Compound 407]
> 5.30

###

# Test system: COLO 205 colorectal tumor cells
# Experiment Notes: Tumor cell viability inhibition assay (CellTiter-Glo 2.0, 72 hours)
# Format: cell-based
# Condition Info: Homo sapiens, COLO 205, 72 h, COLO 205 cell viability
This listing pairs compounds with measured IC50.

# Compound, IC50
records = [
    ("Cc1cc(-c2cc(Cl)ccc2OCCn2c(C)nc3c(c2=O)CC(N(C)CC(F)(F)F)CC3)c2scc(C(=O)NS(C)(=O)=O)c2n1 (centres unmarked) [Compound 61]", "< 5 µM"),
    ("Cc1cc(-c2cc(Cl)ccc2OCCn2c(C)nc3c(c2=O)C[C@@H](N2CCO[C@H](CC(F)(F)F)C2)CC3)c2scc(C(=O)O)c2n1 (single isomer, unassigned) [Compound 526]", "< 5 µM"),
    ("Cc1cc(-c2cc(Cl)ccc2OCCn2c(C)nc3c(c2=O)C[C@@H](N2CCC[C@@H](F)C2)CC3)c2scc(C(=O)O)c2n1 (single isomer, unassigned) [Compound 324]", "< 5 µM"),
    ("Cc1cc(-c2cc(Cl)ccc2OCCn2c(C)nc3c(c2=O)CC(N2CCC(OCCO)CC2)CC3)c2scc(C(=O)O)c2n1 (centres unmarked) [Compound 208]", "> 20 µM"),
]

Continue with the next compound.
# assay system COLO 205 colorectal tumor cells: give IC50 of Cc1cc(-c2cc(Cl)ccc2OCCn2c(C)nc3c(c2=O)C[C@@H](N2CCC(OC(F)F)CC2)CC3)c2scc(C(=O)O)c2n1 (single isomer, unassigned) [Compound 360]
< 5 µM
